target: hT1R1/hT1R3 umami receptor (Homo sapiens, UniProt Q7RTX0+Q7RTX1); construct: expressed in transfected cells; host or cells: HEK293 derivative stably expressing Gα15, clone I-17, expression induced with mifepristone; test: In vitro hT1R1/hT1R3 umami taste receptor activation assay (FLIPR, dose response); format: cell-based; details: Table A, Umami Amides; read-out: Umami EC50
Sequence (Q7RTX1 21-841): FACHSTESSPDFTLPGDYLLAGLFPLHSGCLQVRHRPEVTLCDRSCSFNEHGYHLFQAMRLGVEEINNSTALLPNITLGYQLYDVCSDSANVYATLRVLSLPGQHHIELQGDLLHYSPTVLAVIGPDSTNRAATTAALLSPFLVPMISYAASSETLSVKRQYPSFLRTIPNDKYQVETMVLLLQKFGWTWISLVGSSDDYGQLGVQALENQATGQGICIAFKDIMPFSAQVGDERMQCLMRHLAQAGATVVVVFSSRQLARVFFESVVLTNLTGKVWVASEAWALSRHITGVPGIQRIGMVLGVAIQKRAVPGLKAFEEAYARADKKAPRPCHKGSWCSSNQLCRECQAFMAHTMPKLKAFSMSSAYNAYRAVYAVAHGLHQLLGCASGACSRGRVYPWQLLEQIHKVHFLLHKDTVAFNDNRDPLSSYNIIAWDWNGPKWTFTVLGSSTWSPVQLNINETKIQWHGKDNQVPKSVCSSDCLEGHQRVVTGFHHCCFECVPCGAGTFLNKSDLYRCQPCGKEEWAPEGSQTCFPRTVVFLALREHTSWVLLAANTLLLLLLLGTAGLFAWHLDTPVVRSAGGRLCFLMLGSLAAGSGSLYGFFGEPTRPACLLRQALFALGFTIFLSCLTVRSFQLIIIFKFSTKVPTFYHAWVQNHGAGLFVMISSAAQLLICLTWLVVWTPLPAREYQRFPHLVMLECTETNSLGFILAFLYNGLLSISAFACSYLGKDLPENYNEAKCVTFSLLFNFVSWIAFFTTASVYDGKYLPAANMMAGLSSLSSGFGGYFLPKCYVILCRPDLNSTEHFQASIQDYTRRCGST
Sequence (Q7RTX0 21-852): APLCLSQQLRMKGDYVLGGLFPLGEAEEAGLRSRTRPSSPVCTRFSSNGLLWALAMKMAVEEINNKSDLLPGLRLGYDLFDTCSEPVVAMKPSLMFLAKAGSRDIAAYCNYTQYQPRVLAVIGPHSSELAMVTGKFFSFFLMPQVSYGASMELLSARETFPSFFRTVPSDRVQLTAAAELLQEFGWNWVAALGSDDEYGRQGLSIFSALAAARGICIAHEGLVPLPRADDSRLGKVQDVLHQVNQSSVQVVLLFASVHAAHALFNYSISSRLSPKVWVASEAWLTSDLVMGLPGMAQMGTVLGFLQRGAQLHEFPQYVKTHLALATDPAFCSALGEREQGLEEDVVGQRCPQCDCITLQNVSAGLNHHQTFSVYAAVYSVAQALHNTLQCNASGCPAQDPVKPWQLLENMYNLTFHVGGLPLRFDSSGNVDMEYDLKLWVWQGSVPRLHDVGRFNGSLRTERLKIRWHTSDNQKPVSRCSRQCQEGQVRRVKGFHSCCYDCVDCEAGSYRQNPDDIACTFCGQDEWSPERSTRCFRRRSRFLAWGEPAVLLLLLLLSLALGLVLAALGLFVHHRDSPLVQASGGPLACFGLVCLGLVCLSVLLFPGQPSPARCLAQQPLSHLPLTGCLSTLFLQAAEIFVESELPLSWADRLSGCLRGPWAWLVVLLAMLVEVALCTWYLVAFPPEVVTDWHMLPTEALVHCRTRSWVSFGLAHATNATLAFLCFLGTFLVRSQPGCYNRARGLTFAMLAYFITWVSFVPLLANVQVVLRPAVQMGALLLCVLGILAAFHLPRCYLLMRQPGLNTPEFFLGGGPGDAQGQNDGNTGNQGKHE
Label Condition met when EC50 < 400 nM; otherwise Condition not met.

For orientation, consider the following solved cases.
INSERT INTO results (compound, class_name) VALUES
  ('CCCC(CC(C)C)NC(=O)c1cc2cc(OC)ccc2o1 (stereo not shown) [Example A18]', 'Condition not met'),
  ('Cc1ccoc1C(=O)NC1CCCC(C)C1C (stereo not shown) [Example A32]', 'Condition not met');

Problem: Lab note: EC50 threshold 400 nM. Does this compound come in strictly under it? COC(=O)[C@H](NC(=O)c1ccc(C)c(C)c1)C(C)C [Example A62]
Solution: Condition met

Problem: Again, but for Cc1cc(C(=O)NC2CCCCC2C)oc1C (stereo not shown) [Example A33]
Solution: Condition not met

Problem: Consider next the compound CCCC(CCC)NC(=O)c1cccc(C)c1N [Example A127] in the same way.
Solution: Condition met

Problem: Check CC[C@@H](C)[C@@H](NC(=O)c1ccc2c(c1)OCO2)C(=O)OC [Example A42] too.
Solution: Condition met

Problem: Please give the result for C=Cc1ccc(C(=O)N[C@H]2CCCc3ccccc32)cc1 [Example A105] too.
Solution: Condition not met

Problem: Also check COc1ccc(C(=O)NC2CCCCC2C)cc1Cl (stereo not shown) [Example A77]
Solution: Condition not met

Problem: Likewise for CCCC(CCC)NC(=O)c1ccc2nc(CC)oc2c1 [Example A27] ?
Solution: Condition not met

Problem: Now this one: COC(=O)[C@@H](CC(C)C)NC(=O)c1ccc(C)cc1 [Example A69]
Solution: Condition met
